All figures here come from patent US5686428A.

TEST_SYSTEM: HIV-1 reverse transcriptase (Human immunodeficiency virus type 1 group M subtype B, UniProt P04585)
Construct: HIV-1 reverse transcriptase was isolated from detergent disrupted virions; endogenous in cells; host or cells: virions from cell-free supernatant of HIV-1 infected PHA-stimulated human PBM cells, ion-exchange chromatography
PROTOCOL: RT activity assay with partially purified enzyme
Assay type: biochemical
pEC50: −log10 of the molar value.
METRIC: pEC50

STRUCTURE_AS_SMILES	MEAS_VALUE
O=C(O)P(=O)(O)O	6.85
